Origin of values: patent US20040018971A1

- STUDY TARGET: HLA-A*0203 (human)
- EXPERIMENTAL DETAILS: competition with 125I-labelled probe peptide for purified HLA, gel filtration
- STUDY CONDITIONS: remark: other sources report otherwise
RESULT TYPE: IC50 (nM)
A number alone suffices; assume nM.

Tell me IC50 reported for VLLGVVFGV [Her2/neu.665L2V9] 14
